target: UniProtKB Q9Y230
Sequence (Q9Y230 whole entry): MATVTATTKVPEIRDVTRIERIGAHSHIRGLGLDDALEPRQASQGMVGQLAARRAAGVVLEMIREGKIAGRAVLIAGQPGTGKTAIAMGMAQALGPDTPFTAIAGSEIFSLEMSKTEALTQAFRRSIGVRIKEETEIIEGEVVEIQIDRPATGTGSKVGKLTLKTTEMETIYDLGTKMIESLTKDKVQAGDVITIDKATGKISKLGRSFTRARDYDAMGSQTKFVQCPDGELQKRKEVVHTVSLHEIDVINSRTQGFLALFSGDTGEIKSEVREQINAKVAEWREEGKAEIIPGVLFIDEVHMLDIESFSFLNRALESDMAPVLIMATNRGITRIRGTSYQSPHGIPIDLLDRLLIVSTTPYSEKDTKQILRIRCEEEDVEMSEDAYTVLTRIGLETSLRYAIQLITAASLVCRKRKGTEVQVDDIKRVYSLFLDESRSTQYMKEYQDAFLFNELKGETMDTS
pKd: −log10 of the molar value.
quantity.kind: pKd

stdin: Give UniProtKB Q9Y230 pKd for Nc1ncnc2c1ncn2[C@@H]1O[C@H](CO)C[C@H]1O [Cordycepin, 3′-deoxy-adenosine]
stdout: ~6.30

* * *

test system: Per2-Luc reporter U2OS cells (D15); assay: Circadian phase shift cell assay in D15 cells, 384 well plate, Tecan, with or without pentostatin; assay type: cell-based, human; settings: without pentostatin; concentration that shifts the circadian phase; read-out: Cell Assay
Quick list: minimal effective concentration per entry.
// return numeric value only (unit: µM, not printed)

Recorded minimal effective concentration, per entry:
molecule | unit.label | result.number
O=C(CCCC[C@@H]1SC[C@@H]2NC(=O)N[C@@H]21)Nc1ncnc2c1ncn2[C@@H]1O[C@H](CO)CC1O (some centres unmarked) [drawing 315] | µM | 200
Nc1ncnc2c1ncn2[C@@H]1O[C@H](COC(=O)CCCC[C@@H]2SC[C@@H]3NC(=O)N[C@@H]32)CC1O (some centres unmarked) [drawing 316] | µM | 200

Could you now consider this next molecule?
stdin: // returns reported minimal effective concentration for input OC[C@H]1O[C@@H](n2cnc3cc(Cl)c(Cl)cc32)C(O)C1O (some centres unmarked) [drawing 284]
stdout: 10
